test system: DU-145 prostate; test: NCI-60 one-dose screen, 48 h (100 = growth as untreated, 0 = no growth, -100 = all killed); settings: 10 µM unless noted
This is part of a sample that, as a whole, favours compounds with a hit. Of some 83,000 tested, about 20% had one in any assay.
Recorded growth by entry
Express the result in % but write the number alone.

>  <compound>
COc1ccc(/C(=C\c2cc(OC)c(OC)c(OC)c2)C(=O)N2CCNCC2)cc1

>  <readout unit>
%

>  <growth>
112

$$$$
>  <compound>
C=CC[C@]1(O)CC[C@H]2[C@@H]3CCc4cc(O)ccc4[C@H]3CC[C@@]21C

>  <readout unit>
%

>  <growth>
102

$$$$
>  <compound>
CCC1CCc2nc3sc(C(=O)Nc4cccc(F)c4)c(N)c3cc2C1 (stereo not drawn)

>  <readout unit>
%

>  <growth>
60

$$$$
>  <compound>
CCN(CC)CCCCCCCNc1cc(OC)cc2c(C)ccnc12

>  <readout unit>
%

>  <growth>
102

$$$$
>  <compound>
COc1cc(C2CC(c3ccc(Cl)cc3)=NN2C=O)ccc1OS(=O)(=O)c1ccc(C)cc1 (stereo not drawn)

>  <readout unit>
%

>  <growth>
105

$$$$

growth reported for this compound C=C(C)c1ccc(/C=N/NC(N)=S)cc1 : 97.6

growth reported for this compound C=CCn1c(C)nc2cc(Nc3nc(Nc4ccc5nc(C)n(CC=C)c5c4)nc4ccccc34)ccc21 : 115
